Molecular target: c-MET (Homo sapiens, UniProt P08581)
Construct: The recombinant DNA His-Tev-MET (956-1390) in pFastBac(Invitrogen); His (N, cleaved yes); Tev (TEV protease site) (N, cleaved yes)
Sequence (P08581 956-1390): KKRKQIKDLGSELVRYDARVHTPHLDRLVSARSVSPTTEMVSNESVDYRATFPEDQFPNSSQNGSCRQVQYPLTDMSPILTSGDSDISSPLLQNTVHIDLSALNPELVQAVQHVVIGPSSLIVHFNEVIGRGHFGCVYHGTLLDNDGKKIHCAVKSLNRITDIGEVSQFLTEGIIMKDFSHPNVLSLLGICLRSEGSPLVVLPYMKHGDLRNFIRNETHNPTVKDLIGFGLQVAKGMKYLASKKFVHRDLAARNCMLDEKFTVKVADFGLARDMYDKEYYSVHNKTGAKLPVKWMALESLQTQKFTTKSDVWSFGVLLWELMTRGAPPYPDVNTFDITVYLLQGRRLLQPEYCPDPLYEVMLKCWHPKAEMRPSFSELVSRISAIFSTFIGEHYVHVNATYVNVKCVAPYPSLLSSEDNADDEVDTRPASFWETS
Assay: Test A: HTRF Met test in 96-well format
pIC50: −log10 of the molar value. Counter-ions that a name gives are not always drawn.
Give measured pIC50 for each item. Keep answers brief.

Ask: State its pIC50: CC(Oc1cc2sc(NC(=O)NCCn3cccc3)nc2cc1F)c1c(Cl)ccc(F)c1Cl (stereo not shown)
Reply: > 7.00

Ask: Return pIC50 for the following compound: CCOCCNC(=O)Nc1nc2cc(F)c(OC(C)c3c(Cl)ccc(F)c3Cl)cc2s1 (stereo not shown)
Reply: > 7.00

Ask: Consider the compound Cc1cc2nc(NC(=O)NCCN3CCOCC3)sc2cc1OC(C)c1c(Cl)ccc(F)c1Cl (stereo not shown) and give its recorded pIC50.
Reply: > 7.00

Ask: Please report the measured pIC50 for CC(Oc1ccc2nc(NC(=O)NCCN3CCCC3)sc2c1)c1c(Cl)ccc(Cl)c1Cl (stereo not shown)
Reply: > 7.00

Ask: Retrieve pIC50 measured for C[C@@H](Oc1cc2sc(NC(=O)NCCN3CCOCC3)nc2cc1F)c1c(Cl)ccc(F)c1Cl (single isomer, unassigned) [Example 33] and print it.
Reply: > 7.00

Ask: Name the recorded pIC50 of the item CC(Oc1cc2sc(NC(=O)NCCN3CCCC3)nc2cc1F)c1c(Cl)ccc(F)c1Cl (stereo not shown) [Example 84] in your answer.
Reply: > 7.00

Ask: Determine its reported pIC50: CC(Oc1cc2sc(NC(=O)NCCN(C)Cc3ccccc3)nc2cc1F)c1c(Cl)ccc(F)c1Cl (stereo not shown)
Reply: > 7.00

Ask: Write down pIC50 measured for item CC(Oc1ccc2nc(NC(=O)NCc3ccncc3)sc2c1)c1c(Cl)ccc(F)c1Cl (stereo not shown)
Reply: > 7.00

Ask: Name the recorded pIC50 of the item CC(Oc1cc2sc(NC(=O)C3CC3)nc2cc1F)c1c(Cl)ccc(F)c1Cl (stereo not shown) in your answer.
Reply: > 7.00

Ask: Using the record for O=C(NCCN1CCOCC1)Nc1nc2ccc(OCc3c(F)cccc3F)cc2s1 , state its measured pIC50.
Reply: > 7.00

Ask: Specify reported pIC50 for the compound shown: CC(Oc1cc2sc(NC(=O)NCCN3CCN(C)CC3)nc2cc1F)c1c(Cl)ccc(F)c1Cl (single isomer, unassigned) [Example 77]
Reply: > 7.00

Ask: Supply pIC50 value. Item: CC(Oc1ccc2nc(NC(=O)NCCN3CCC(Cc4ccccc4)CC3)sc2c1)c1c(Cl)ccc(F)c1Cl (stereo not shown)
Reply: > 7.00

Ask: Write down pIC50 measured for item CNCCCNC(=O)Nc1nc2cc(F)c(OC(C)c3c(Cl)ccc(F)c3Cl)cc2s1 (stereo not shown)
Reply: > 7.00

Ask: Report pIC50 for COCCOC(=O)Nc1nc2cc(F)c(OC(C)c3c(Cl)ccc(F)c3Cl)cc2s1 (stereo not shown)
Reply: > 7.00

Ask: State its pIC50: CC(Oc1ccc2nc(NC(=O)NCCN3CCOCC3)sc2c1)c1cc(F)cc(F)c1 (stereo not shown)
Reply: 5.00 to 7.00

Ask: Fill in pIC50 for record CC(Oc1cc2sc(NC(=O)NCCN)nc2cc1F)c1c(Cl)ccc(F)c1Cl (single isomer, unassigned) [Example 89]
Reply: > 7.00

Ask: Specify pIC50 for CC(Oc1cc2sc(NC(=O)NCCCO)nc2cc1F)c1c(Cl)ccc(F)c1Cl (stereo not shown) and stop.
Reply: > 7.00

Ask: # return recorded pIC50 for input CC(Oc1ccc2nc(NC(=O)NCCN3CCOCC3)sc2c1)c1c(Cl)ccc(F)c1Cl (single isomer, unassigned) [Example 26]
Reply: 5.00 to 7.00

Ask: Please list pIC50 recorded for the compound CC(Oc1ccc2nc(NC(=O)NCCN3CCN(C)CC3)sc2c1)c1c(F)ccc(Cl)c1Cl (stereo not shown) [Example 108]
Reply: > 7.00

Ask: Specify pIC50 for CC(Oc1ccc2nc(NC(=O)NCCN3CCOCC3)sc2c1)c1ccccc1C(F)(F)F (stereo not shown) and stop.
Reply: > 7.00

Ask: Give a short answer stating reported pIC50 for CC(Oc1cc2sc(NC(=O)NCCN3CCCCC3)nc2cc1F)c1c(Cl)ccc(F)c1Cl (stereo not shown) .
Reply: > 7.00

Ask: Hello, please tell me recorded pIC50 for this one: CC(Oc1ccc2nc(NC(=O)NCCN3CCOCC3)[nH]c2c1)c1c(Cl)ccc(F)c1Cl (stereo not shown) [Example 4, trifluoroacetate]
Reply: > 7.00

====

Please go through the items and note down their melting point.

Ask: Note melting point for the molecule shown: CC(Oc1cc2sc(NC(=O)CCCN3CCCC3)nc2cc1F)c1c(Cl)ccc(F)c1Cl (stereo not shown) [Example 68]
Reply: 153 to 157 °C

Ask: Retrieve melting point measured for CC(Oc1ccc2nc(NC(=O)NCCN3CCN(Cc4ccccc4)CC3)sc2c1)c1c(Cl)ccc(F)c1Cl (stereo not shown) [Example 35] and print it.
Reply: 125 to 139 °C

Ask: Item O=C(NCCN1CCOCC1)Nc1nc2ccc(OC(c3c(Cl)cccc3Cl)C(F)(F)F)cc2s1 (stereo not shown) [Example 64] : provide melting point
Reply: 150 to 160 °C

Ask: Give the reported value of melting point for this record: Cc1cc2nc(NC(=O)NCCN3CCOCC3)sc2cc1OC(C)c1c(Cl)ccc(F)c1Cl (stereo not shown) [Example 107]
Reply: 270 to 276 °C

Ask: Assign melting point to the following record: COCCN(C)C(=O)Nc1nc2cc(F)c(OC(C)c3c(Cl)ccc(F)c3Cl)cc2s1 (stereo not shown) [Example 93]
Reply: 62 to 67 °C

Ask: Dear colleague, please send me the reported melting point for CC(Oc1cc2sc(NC(=O)NCCCN3CCCC3=O)nc2cc1F)c1c(Cl)ccc(F)c1Cl (stereo not shown) [Example 78] when you can.
Reply: 191 to 195 °C

Ask: Output measured melting point for this item: CC(Oc1cc2sc(NC(=O)NCCOCC3CC3)nc2cc1F)c1c(Cl)ccc(F)c1Cl (stereo not shown) [Example 103]
Reply: 178 to 184 °C

Ask: Return reported melting point. Input molecule: CC(Oc1ccc2nc(C(COC(N)=O)N3CCOCC3)sc2c1)c1c(Cl)ccc(F)c1Cl (stereo not shown) [Example 74]
Reply: 235 to 240 °C

Ask: Quick one: give measured melting point for CCN(CC)C(CCOC(N)=O)c1nc2cc(F)c(OC(C)c3c(Cl)ccc(F)c3Cl)cc2s1 (stereo not shown) [Example 70]
Reply: 188 to 190 °C

Ask: Read the entry CNC(=O)OC(C)(C)CCCNC(=O)Nc1nc2cc(F)c(OC(C)c3c(Cl)ccc(F)c3Cl)cc2s1 (stereo not shown) [Example 95] and write its reported melting point.
Reply: 151 to 193 °C

====

Provide the reported melting point of each item.

Ask: Quick one: give measured melting point for Cc1ccc(F)c(C(C)Oc2ccc3nc(NC(=O)NCCN4CCOCC4)sc3c2)c1Cl (stereo not drawn)
Reply: 165 to 170 °C

Ask: Please report the measured melting point for CC(C)OCCNC(=O)Nc1nc2cc(F)c(OC(C)c3c(Cl)ccc(F)c3Cl)cc2s1 (stereo not drawn)
Reply: 177 to 184 °C

Ask: Please supply the value of reported melting point for the item O=C(NCCN1CCOCC1)Nc1nc2ccc(OCc3c(Cl)cccc3Cl)cc2[nH]1
Reply: 256 to 259 °C

====

Task for the reader: assign each of the following molecules its reported melting point.

Ask: Specify measured melting point for CC(Oc1cc2sc(NC(=O)NCCN3CCCCC3)nc2cc1F)c1c(Cl)ccc(F)c1Cl (stereo not shown) .
Reply: 186 to 195 °C

Ask: Quick one: give measured melting point for O=C(NCCCN1CCOCC1)Nc1nc2ccc(OCc3c(Cl)cccc3Cl)cc2s1
Reply: 162 to 166 °C

Ask: Supply reported melting point belonging to this molecule: CC(Oc1cc2sc(NC(=O)NCCN3CCOCC3)nc2cc1F)c1c(F)ccc(Cl)c1Cl (stereo not shown)
Reply: 220 to 225 °C

Ask: Supply measured melting point of CC(Oc1cc2sc(NC(=O)NCCN3CCOCC3)nc2cc1Cl)c1c(Cl)ccc(F)c1Cl (stereo not shown) in your reply.
Reply: 196 to 198 °C

====

Give measured IC50 for each item. Keep answers brief.
Biological target: MET (Homo sapiens, UniProt P08581)
Construct: endogenous in cells; host or cells: MKN45 cells
Sequence (P08581 25-1390): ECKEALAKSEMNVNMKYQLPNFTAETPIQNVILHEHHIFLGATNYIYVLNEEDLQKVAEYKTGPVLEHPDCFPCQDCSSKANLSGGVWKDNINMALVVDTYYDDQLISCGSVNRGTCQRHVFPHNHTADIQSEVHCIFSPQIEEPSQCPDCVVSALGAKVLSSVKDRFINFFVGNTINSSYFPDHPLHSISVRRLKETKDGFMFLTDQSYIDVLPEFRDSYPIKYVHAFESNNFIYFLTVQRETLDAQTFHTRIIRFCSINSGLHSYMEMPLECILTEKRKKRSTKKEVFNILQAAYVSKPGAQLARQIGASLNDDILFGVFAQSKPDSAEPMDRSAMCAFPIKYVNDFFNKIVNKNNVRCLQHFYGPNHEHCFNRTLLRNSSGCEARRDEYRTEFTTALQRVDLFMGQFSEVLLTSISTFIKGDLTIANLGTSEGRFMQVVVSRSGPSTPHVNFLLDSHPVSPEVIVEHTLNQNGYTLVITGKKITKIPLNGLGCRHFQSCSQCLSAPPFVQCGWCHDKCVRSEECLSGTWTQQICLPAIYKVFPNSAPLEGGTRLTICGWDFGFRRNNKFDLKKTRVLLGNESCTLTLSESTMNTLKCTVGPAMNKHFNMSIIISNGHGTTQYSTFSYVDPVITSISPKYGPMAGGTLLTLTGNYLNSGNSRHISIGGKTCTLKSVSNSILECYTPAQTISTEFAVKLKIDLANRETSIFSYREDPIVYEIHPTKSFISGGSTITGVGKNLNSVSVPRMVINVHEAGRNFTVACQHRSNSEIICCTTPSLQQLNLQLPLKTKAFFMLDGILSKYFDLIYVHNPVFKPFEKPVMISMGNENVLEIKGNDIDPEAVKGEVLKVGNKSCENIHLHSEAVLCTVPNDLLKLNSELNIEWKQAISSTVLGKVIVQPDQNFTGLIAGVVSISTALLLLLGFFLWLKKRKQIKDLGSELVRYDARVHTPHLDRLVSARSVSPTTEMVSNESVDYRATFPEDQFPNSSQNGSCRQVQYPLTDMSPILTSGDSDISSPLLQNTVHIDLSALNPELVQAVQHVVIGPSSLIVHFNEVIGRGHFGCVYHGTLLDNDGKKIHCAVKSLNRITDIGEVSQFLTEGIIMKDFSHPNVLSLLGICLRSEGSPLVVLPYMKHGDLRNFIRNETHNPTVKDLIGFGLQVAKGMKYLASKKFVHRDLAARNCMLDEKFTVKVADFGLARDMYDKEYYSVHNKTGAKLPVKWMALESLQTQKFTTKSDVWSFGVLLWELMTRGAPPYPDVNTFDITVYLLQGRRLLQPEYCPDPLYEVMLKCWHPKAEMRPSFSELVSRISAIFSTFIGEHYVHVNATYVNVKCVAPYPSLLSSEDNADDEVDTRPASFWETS
Assay: Test C: inhibition of the autophosphorylation of MET, ELISA technique (pppY1230, 1234, 1235), MKN45 cells
Assay type: cell-based
Description: C) Inhibition of the Autophosphorylation of MET; ELISA Technique (pppY1230, 1234, 1235) a) Cellular lysates: Sow the MKN45 cells in a 96-well plate (Cell coat BD polylysine) at 20 000 cells/well under 200 μl of medium RPMI+10% FCS+1% L-glutamine. Leave to adhere to the incubator for 24 h. […] Stop the reaction with 100 μl of stop solution. Read at once at […] 0.1 second in the Wallac Victor plate reader. […]

Ask: Read off the recorded IC50 for O=C(Nc1nc2ccc(OCc3c(Cl)cccc3Cl)cc2[nH]1)C1CC1 [Example 7]
Reply: 500 to 10000 nM

Ask: Identify the reported IC50 for the following entry. CC(Oc1cc2sc(NC(=O)NCCN3CCCC3)nc2cc1F)c1c(Cl)ccc(Cl)c1Cl (stereo not shown) [Example 126]
Reply: 500 to 10000 nM

Ask: Identify the reported IC50 for the following entry. CCN1CCN(CCNC(=O)Nc2nc3cc(F)c(OC(C)c4c(Cl)ccc(F)c4Cl)cc3s2)CC1 (stereo not shown) [Example 100]
Reply: < 500 nM

Ask: Complete the entry with IC50 for CC(Oc1ccc2nc(NC(=O)NCCN3CCN(C)CC3)sc2c1)c1c(F)ccc(Cl)c1Cl (single isomer, unassigned) [Example 109]
Reply: < 500 nM

Ask: Give the reported value of IC50 for this record: CC(Oc1cc2sc(NC(=O)NCCN3CCNC(=O)C3)nc2cc1F)c1c(Cl)ccc(F)c1Cl (stereo not shown) [Example 130]
Reply: < 500 nM

Ask: Tell me its IC50 given CCC(Oc1ccc2nc(NC(=O)NCCN3CCOCC3)sc2c1)c1c(Cl)cccc1Cl (stereo not shown) [Example 122] as the entry.
Reply: 500 to 10000 nM

Ask: Consider the molecule Cc1ccc(F)c(C(C)Oc2ccc3nc(NC(=O)NCCN4CCOCC4)sc3c2)c1F (stereo not shown) [Example 123] and give its recorded IC50.
Reply: 500 to 10000 nM

Ask: For the molecule CC(Oc1cc2sc(NC(=O)NCCCO)nc2cc1F)c1c(Cl)ccc(F)c1Cl (stereo not shown) [Example 105] , give its reported IC50.
Reply: < 500 nM

Ask: Input CNCCCNC(=O)Nc1nc2cc(F)c(OC(C)c3c(Cl)ccc(F)c3Cl)cc2s1 (stereo not shown) [Example 127] , output reported IC50.
Reply: < 500 nM

Ask: Indicate the recorded IC50 value for this molecule: O=C(NCCN1CCOCC1)Nc1nc2ccc(OCc3c(Cl)cccc3Cl)cc2s1 [Example 10]
Reply: 500 to 10000 nM

Ask: Return IC50 for the following molecule: CC(Oc1ccc2nc(NC(=O)NCCCN3CCC(Cc4ccccc4)CC3)sc2c1)c1c(Cl)ccc(F)c1Cl (stereo not shown) [Example 41]
Reply: 500 to 10000 nM

Ask: Give the value of IC50 reported for the following: CC(Oc1ccc2nc(NC(=O)NCCC3CCCN3C)sc2c1)c1c(F)ccc(Cl)c1Cl (stereo not shown) [Example 110]
Reply: < 500 nM

Ask: Given CC(Oc1cc2sc(NC(=O)NCCN3CCOCC3)nc2cc1F)c1c(F)ccc(Cl)c1Cl (single isomer, unassigned) [Example 112] , respond with its IC50.
Reply: < 500 nM

Ask: State, in one line, measured IC50 of O=C(NCCN1CCOCC1)Nc1nc2ccc(OC(c3c(Cl)cccc3Cl)C(F)(F)F)cc2s1 (stereo not shown) [Example 64]
Reply: 500 to 10000 nM

Ask: Hello, please tell me recorded IC50 for this one: CC(Oc1ccc2nc(NC(=O)NCCN3CCN(C(=O)OC(C)(C)C)CC3)sc2c1)c1c(Cl)ccc(F)c1Cl (stereo not shown) [Example 36]
Reply: 500 to 10000 nM

Ask: Query IC50 for CC(Oc1ccc2nc(NC(=O)NCCN3CCOCC3)sc2c1)c1c(F)ccc(Cl)c1F (stereo not shown) [Example 63]
Reply: 500 to 10000 nM
